Numbers sourced from paper PMC5933782.

study system: DYRK3 (Homo sapiens, UniProt O43781)
Sequence (O43781 whole entry): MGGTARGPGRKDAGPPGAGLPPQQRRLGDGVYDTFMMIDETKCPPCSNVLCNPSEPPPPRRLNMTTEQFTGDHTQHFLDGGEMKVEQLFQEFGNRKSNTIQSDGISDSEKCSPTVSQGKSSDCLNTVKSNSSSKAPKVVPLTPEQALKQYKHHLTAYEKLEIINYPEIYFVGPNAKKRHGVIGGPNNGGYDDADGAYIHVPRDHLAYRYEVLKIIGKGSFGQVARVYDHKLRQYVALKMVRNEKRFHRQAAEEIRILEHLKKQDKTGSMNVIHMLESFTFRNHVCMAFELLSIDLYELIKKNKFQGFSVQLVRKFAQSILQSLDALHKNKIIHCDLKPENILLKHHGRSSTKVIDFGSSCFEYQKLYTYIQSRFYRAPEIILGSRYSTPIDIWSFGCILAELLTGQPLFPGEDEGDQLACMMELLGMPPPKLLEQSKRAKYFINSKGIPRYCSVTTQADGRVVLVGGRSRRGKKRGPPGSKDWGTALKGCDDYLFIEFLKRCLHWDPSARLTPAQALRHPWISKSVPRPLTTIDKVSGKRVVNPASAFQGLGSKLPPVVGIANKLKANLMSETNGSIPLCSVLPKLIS
test details: radiometric protein kinase assay
Assay type: biochemical
conditions used: 10 µM concentration; ± SEM
// NB: equality with 60% counts as Criterion not met; only Residual enzyme activity DYRK 3 strictly below is Criterion met

>>> class_label("CCc1c(-c2ccccc2)[nH]c2c3c(ccc12)CNC3=O [S18d]")
"Criterion not met"
>>> class_label("Cc1[nH]c2c3c(ccc2c1C)C(=O)NC3=O")
"Criterion met"
>>> class_label("Cc1ccc(-c2[nH]c3c4c(ccc3c2C)CNC4=O)cc1 [S18e]")
"Criterion not met"
>>> class_label("CCc1[nH]c2c3c(ccc2c1C)CNC3=O [S18a]")
"Criterion not met"
>>> class_label("Cc1c(-c2ccccc2)[nH]c2c3c(ccc12)CNC3=O [S18c]")
"Criterion not met"
>>> class_label("Cc1[nH]c2c3c(ccc2c1C)CNC3=O [S18b]")
"Criterion not met"
